Listed below: normalized growth values for each entry.
- assayNotes: chemical genetic growth profiling, strain panel (AID 1159580);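 further: tested at 20 µM; growth read once vehicle control cultures reached saturation at 30 °C; 1 = growth at the plate median or of vehicle wells; lower values mean less growth of the strain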
- assayContext: S. cerevisiae deletion strains, growth OD, strain wtn01, stronger effect = lower value
The whole screen tested about 5,500 compounds, of which about 2,000 (36%) were called active. Not shown: some 18% with an inconclusive outcome. This is one part of the list.

{"columns": ["compound", "normalized growth"],
 "data": [
  ["Cc1cc(OC(=O)c2c(C)cc(OC(=O)c3c(C)cc(O)cc3O)cc2O)cc(O)c1C(=O)O", 0.994],
  ["CCOC(=O)c1c(C)cc(OC)cc1O", 0.928],
  ["Cc1[nH]ccc2c1[nH]c1cc(=O)ccc12", 0.984],
  ["C=C[C@H]1CN2CC[C@H]1C[C@@H]2[C@@H](OC(=O)OCC)c1ccnc2ccc(OC)cc12", 1.04],
  ["COc1cccc2c(C)cc(=O)[nH]c12", 0.881],
  ["OCC(O)C(O)C(O)C(O)C(O)CO (stereo not drawn)", 0.997],
  ["CCOC(=O)c1c(C)cc(O)cc1O", 0.892],
  ["CC(C)C1COc2cc3oc(=O)ccc3cc2O1 (stereo not drawn)", 0.394],
  ["COc1ccc2c(c1C(C)C)CCC1C(C)(C)C(=O)CCC21C (stereo not drawn)", 0.975],
  ["CCc1cc(C(N)=S)ccn1", 0.995],
  ["O=c1c(O)c(-c2cc(O)c(O)c(O)c2)oc2cc(O)cc(O)c12", 1.02],
  ["CCC(=O)c1c(O)cc(O)cc1O", 0.978],
  ["CC(C)(C)NCC(O)c1cc(Cl)c(N)c(Cl)c1 (stereo not drawn)", 0.971]
]}

Recorded values, source PubChem BioAssay AID1159580.
